B1: library; a variant is named by its letters at N, in order (parent)
chain: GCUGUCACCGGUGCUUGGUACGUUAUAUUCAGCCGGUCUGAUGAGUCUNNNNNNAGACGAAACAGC

variants of: B1; assay: normalized RNA/DNA level without ligand (relative to sTRSVctl = 100) (log10 (% of sTRSVctl)); HEK293T overexpressing SLC46A1; higher = less ribozyme self-cleavage, higher mRNA level; conditions: without (6R,S)-folinic acid; ligand present: no
List of normalized RNA/DNA level without ligand (log10) values.
Returns: the value as a bare number; no unit string appended.

Consider the worked cases shown below.
                              sequence_data  measured_value
0  GCUGUCACCGGUGCUUGGUACGUUAUAUUCAGCCGGUCUGAUGAGUCUACGUAAAGACGAAACAGC [ACGUAA]            1.96
1  GCUGUCACCGGUGCUUGGUACGUUAUAUUCAGCCGGUCUGAUGAGUCUGCACGAAGACGAAACAGC [GCACGA]            2.03
2  GCUGUCACCGGUGCUUGGUACGUUAUAUUCAGCCGGUCUGAUGAGUCUGUCCGGAGACGAAACAGC [GUCCGG]            2.04

query: Tell me the measured normalized RNA/DNA level without ligand (log10) of GCUGUCACCGGUGCUUGGUACGUUAUAUUCAGCCGGUCUGAUGAGUCUAUUCCUAGACGAAACAGC [AUUCCU] , please.
result: 2.04

query: Then this variant: GCUGUCACCGGUGCUUGGUACGUUAUAUUCAGCCGGUCUGAUGAGUCUAACGGAAGACGAAACAGC [AACGGA]
result: 1.97

query: Then this variant: GCUGUCACCGGUGCUUGGUACGUUAUAUUCAGCCGGUCUGAUGAGUCUAGCCCCAGACGAAACAGC [AGCCCC]
result: 2.05

query: Then this variant: GCUGUCACCGGUGCUUGGUACGUUAUAUUCAGCCGGUCUGAUGAGUCUAAGCAUAGACGAAACAGC [AAGCAU]
result: 1.95

query: Then this variant: GCUGUCACCGGUGCUUGGUACGUUAUAUUCAGCCGGUCUGAUGAGUCUAUAUAAAGACGAAACAGC [AUAUAA]
result: 1.96

query: Then this variant: GCUGUCACCGGUGCUUGGUACGUUAUAUUCAGCCGGUCUGAUGAGUCUAGUCCGAGACGAAACAGC [AGUCCG]
result: 1.99

query: Then this variant: GCUGUCACCGGUGCUUGGUACGUUAUAUUCAGCCGGUCUGAUGAGUCUGCGAAGAGACGAAACAGC [GCGAAG]
result: 1.95

query: Then this variant: GCUGUCACCGGUGCUUGGUACGUUAUAUUCAGCCGGUCUGAUGAGUCUGUGACUAGACGAAACAGC [GUGACU]
result: 2.03

query: Then this variant: GCUGUCACCGGUGCUUGGUACGUUAUAUUCAGCCGGUCUGAUGAGUCUGGCUACAGACGAAACAGC [GGCUAC]
result: 2.02

query: Then this variant: GCUGUCACCGGUGCUUGGUACGUUAUAUUCAGCCGGUCUGAUGAGUCUGAAUCCAGACGAAACAGC [GAAUCC]
result: 2.02

query: Then this variant: GCUGUCACCGGUGCUUGGUACGUUAUAUUCAGCCGGUCUGAUGAGUCUUAAGUUAGACGAAACAGC [UAAGUU]
result: 1.95

query: Then this variant: GCUGUCACCGGUGCUUGGUACGUUAUAUUCAGCCGGUCUGAUGAGUCUGCUCGAAGACGAAACAGC [GCUCGA]
result: 2.04

query: Then this variant: GCUGUCACCGGUGCUUGGUACGUUAUAUUCAGCCGGUCUGAUGAGUCUCAGUGUAGACGAAACAGC [CAGUGU]
result: 2.02

query: Then this variant: GCUGUCACCGGUGCUUGGUACGUUAUAUUCAGCCGGUCUGAUGAGUCUCUCGGUAGACGAAACAGC [CUCGGU]
result: 2.03

query: Then this variant: GCUGUCACCGGUGCUUGGUACGUUAUAUUCAGCCGGUCUGAUGAGUCUAGUUGAAGACGAAACAGC [AGUUGA]
result: 1.96

query: Then this variant: GCUGUCACCGGUGCUUGGUACGUUAUAUUCAGCCGGUCUGAUGAGUCUACGUGAAGACGAAACAGC [ACGUGA]
result: 1.96

query: Then this variant: GCUGUCACCGGUGCUUGGUACGUUAUAUUCAGCCGGUCUGAUGAGUCUCAGCGAAGACGAAACAGC [CAGCGA]
result: 2.03

query: Then this variant: GCUGUCACCGGUGCUUGGUACGUUAUAUUCAGCCGGUCUGAUGAGUCUACUGCAAGACGAAACAGC [ACUGCA]
result: 2.02
